Data credit: PubChem BioAssay (NCI)

System: SNB-75 CNS
EXPERIMENTAL_PROTOCOL: NCI-60 one-dose screen, 48 h (100 = growth as untreated, 0 = no growth, -100 = all killed)
CONDITION_INFO: 10 µM unless noted
The panel holds about 83,000 compounds, 20% with a hit somewhere; the sample as a whole holds those more often.
QUANTITY_NAME: growth (%)

{"STRUCTURE_NOTATION": "CCOC(=O)C(=CCC(C)C)C(=O)OCC", "UNITS_OF_MEASURE": "%", "RECORDED_VALUE": 93.1}
{"STRUCTURE_NOTATION": "CSc1nnc(-c2cc3c([nH]c4ccccc43)c(-c3cccc(O)c3)n2)n1-c1ccc(C)cc1", "UNITS_OF_MEASURE": "%", "RECORDED_VALUE": 30.1}
{"STRUCTURE_NOTATION": "CC1=C2[C@@H](CC1)[C@]1(C)O[C@@](C3CC3)(C[C@H]1OC(=O)CO)[C@H]2OC(=O)/C=C/c1ccccc1", "UNITS_OF_MEASURE": "%", "RECORDED_VALUE": 88.2}
{"STRUCTURE_NOTATION": "CCNC(=O)Nc1ncccc1OCc1ccc(F)cc1", "UNITS_OF_MEASURE": "%", "RECORDED_VALUE": 102}
{"STRUCTURE_NOTATION": "c1ccc(-c2cc(-c3cc(-c4ccccc4)on3)no2)cc1", "UNITS_OF_MEASURE": "%", "RECORDED_VALUE": 123}
{"STRUCTURE_NOTATION": "Cc1nc2cccc(NCCCCC(=O)NO)c2c(=O)n1-c1ccccc1", "UNITS_OF_MEASURE": "%", "RECORDED_VALUE": 45.1}
{"STRUCTURE_NOTATION": "O=C(Nc1ncc(Cc2cccc(C(F)(F)F)c2)s1)c1ccc2c(c1)OCCO2", "UNITS_OF_MEASURE": "%", "RECORDED_VALUE": 25.5}
{"STRUCTURE_NOTATION": "Cc1ccc(C(=O)N(CCCN)[C@@H](c2nc3cc(Cl)ccc3c(=O)n2Cc2ccccc2)C(C)C)cc1", "UNITS_OF_MEASURE": "%", "RECORDED_VALUE": -18.7}
{"STRUCTURE_NOTATION": "O=C(CCl)n1nnnc1Cc1ccccc1", "UNITS_OF_MEASURE": "%", "RECORDED_VALUE": 84.9}
{"STRUCTURE_NOTATION": "Brc1ccc(/C=C(/C2=NCCN2)n2ccc3ccccc32)cc1", "UNITS_OF_MEASURE": "%", "RECORDED_VALUE": 33}
{"STRUCTURE_NOTATION": "Cc1ccc(-c2nc3nc(-c4ccc(Br)cc4)nc(N4CCCNCC4)c3o2)cc1", "UNITS_OF_MEASURE": "%", "RECORDED_VALUE": 96.2}
